Ref: paper PMC11243685

molecular target: bovine carbonic anhydrase II (Bos taurus, UniProt P00921); construct: carbonic anhydrase II (bCAII, ≥3000 W-A units/mg from bovine erythrocytes) from Sigma; purchased Sigma (Taufkirchen, Germany); host or cells: isolated from bovine erythrocytes; experiment: Enzymatic assay of bCA II inhibition, absorbance at 415 nm; type: biochemical; details: bCA II; 1 μM concentration of the inhibitor; triplicate with three technical replicas;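 note: enzyme is carbonic anhydrase II isolated from bovine erythrocytes, with its activity followed photometrically at 415 nm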
Sequence (P00921 whole entry): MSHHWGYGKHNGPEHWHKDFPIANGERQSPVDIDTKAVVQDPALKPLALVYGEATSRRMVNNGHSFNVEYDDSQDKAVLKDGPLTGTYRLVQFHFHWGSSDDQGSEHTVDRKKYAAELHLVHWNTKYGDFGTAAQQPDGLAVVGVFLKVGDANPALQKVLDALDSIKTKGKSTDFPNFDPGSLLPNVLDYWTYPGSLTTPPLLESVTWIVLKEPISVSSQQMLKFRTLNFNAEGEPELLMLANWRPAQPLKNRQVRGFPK
QUANTITY_KIND: inhibition at 1 µM (%)

In the examples that follow, each entry is paired with its recorded inhibition at 1 µM.
>>> test_result("CC(C)c1ccc(S(=O)(=O)NCCCCCCCCOS(N)(=O)=O)cc1 [39b]")
28.1
>>> test_result("Cc1cccc(S(=O)(=O)NCCCCCCCOS(N)(=O)=O)c1 [24b]")
27.1
>>> test_result("CC(C)(C)c1cccc(S(=O)(=O)NCCCOS(N)(=O)=O)c1 [59b]")
53.9
>>> test_result("Cc1cccc(S(=O)(=O)NCCCCCCCCOS(N)(=O)=O)c1 [25b]")
38.8

a = NS(=O)(=O)OCCCCCCCCCNS(=O)(=O)c1ccc(C2CCCCC2)cc1 [75b]
b = CC(C)c1cccc(S(=O)(=O)NCCOS(N)(=O)=O)c1 [40b]
Q: Which numeric inhibition at 1 µM is bigger, that of a or that of b ? Refer to your chosen item by its label in the answer.
Result: b
(b: 63.7%, a: 32.1%)
